These entries and their values trace back to patent US20240218057A1.

TARGET_OR_TEST_SYSTEM: T1, SARS-COV-2 RBD (SARS-COV-2, UniProt P0DTC2 319-539)
T1 construct: also called WT RBD
EXPERIMENT: ELISA, RBD coated
Answer each item with its documented EC50.
One number for each entry, in ng/mL.

// worked examples, EC50 included
C866 (antibody, V domains shown, IgG; V domains only) VH: EVQLVESGGGLVQPGRSLRLSCVASGFEFEDYGMHWVRQVPGKGLEWVSGISWNSASVGYADSVRGRFTISRDNAKNSLYLQMNSLRAEDTALYYCGKQINEWSHFLDYWGQGTLVTVSS VL: DIQLTQSPSSVSASVGDRVTITCRASQGISNWLAWYQKKPGKAPKLLIYATSSLQSGVPSRFSGSGSETDFTLTIRSLQPEDFATYYCQQANSYPLTFGQGTKLEIK    2
C1034 (antibody, V domains shown, IgG; V domains only) VH: QLQLQESGPGLVKPSETLSLTCTVSGGSVSSNNHYWGWIRQPPGKGLEWIGSISSSGSTHHNPSLRSRVTISVDTSKNHFSLKLNSVTATDTAVYYCARVDSSGWYTGDVFDVWGQGTMVTVSS VL: DIQMTQSPSSLSASVGDRVTITCRASQTINNYLNWYQQKPGKPPKLLIYAAFSLHSGVPSRFSGSRSGTDFTLTISSLQPEDFATYYCQHSYSTMCSFGQGTKLEIK    2.77
C882 (antibody, V domains shown, IgG; V domains only) VH: QVQLVESGGGVVQPGRSLRLSCAASGFTFIRYNMHWVRQAPGKGLEWVAVIWYDGSNKYYADSVKGRFTISRDNSKNTLYLQMNSLRAEDTAVYYCARDPMIVVVEMDYWGQGTLVTVSS VL: DVVMTQSPLSLPVTLGQPASISCNSSQSLVHTDGNTYLNWFQQRPGQSPRRLIYKVSNRDSGVPDRFSGSGSDTDFTLQISRVEADDVGVYYCMQGSHWPYTFGQGTKLEIK    2.9

Report EC50 for each item below.
1. C960 (antibody, V domains shown, IgG; V domains only) VH: QVQLVESGGGVVQPGRSLTLSCTASGFTFNRFAMFWVRQAPGKGLEWVAVISFDGSYEHYAESVKGRFAIFRDNPKNTLYLQMNSLRAEDTAVYYCAKSPINYCANGVCYPDSWGQGTLVTVSS VL: NFMLTQPHSVSESPGKTVTISCTGSSGSIANNYVQWYQQRPGSAPTTVIFEDTQRPSGVPDRFSGSIDSSSNSASLNISGLKPEDEADYYCQSFDVNSRWVFGGGTKLTVL
2. C1002 (antibody, V domains shown, IgG; V domains only) VH: EVQLVESGGGLVQPGGSLRLSCAASEFIVSSNYMTWVRQAPGKGLEWVSIMYPGGSTFYADSVKGRFTISRDNSKNTLYLQINRLRAEDTAVYYCARDIAGRLDYWGQGTLVTVSS VL: DIQMTQSPSSLSASVGDRVTITCQASQDINNYLNWYQQKPGKAPKLLIYDASNLETGVPSRFSGSGSGTDFSFTISSLQPEDIATYYCQQYDNLSRLTFGGGTKVEIK
3. C843 (antibody, V domains shown, IgG; V domains only) VH: QVQLVESGGGVVQPGRSLRLSCAASGFTFSRYAMHWVRQAPGKGLEWVAVISYDGSNKYYATSLKGRCTISRDNSKNTLYLQMNSLRAEDTAVYFCAKQIGEYCSGGNCYQGSLDYWGQGTLVTVSS VL: DIQMTQSPSSLSASVGDRVTITCQASQDISNYLNWYQQKPGKAPKLLIYDASDLETGVPSTFSGSGSGTDFTLTISSLQPEDFATYYCQQYDIVPFTFGPGTKVDIK

Given back:
1. 1.62
2. 0.83
3. 2.4
